target-or-test-system: SARS-COV-2 RBD-MMH (SARS-CoV-2)
experimental-details: SPR 37C, run with dissociation at pH 5.0
parameter-measured: koff (s⁻¹)
Give your result in s⁻¹ as a bare value.

Q: If you can, please state the reported koff value of mAb15159 (antibody, V domains shown) VH: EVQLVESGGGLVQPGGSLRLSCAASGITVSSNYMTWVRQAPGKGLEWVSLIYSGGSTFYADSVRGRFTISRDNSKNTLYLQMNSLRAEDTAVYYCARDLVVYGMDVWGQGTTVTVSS VL: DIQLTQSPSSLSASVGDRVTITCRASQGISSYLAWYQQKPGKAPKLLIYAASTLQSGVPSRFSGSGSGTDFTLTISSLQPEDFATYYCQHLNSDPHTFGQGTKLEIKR .
Result: 0.000429

From here, focus on the item given below.
Q: Which koff reading was recorded for the binder mAb15163 (antibody, V domains shown) VH: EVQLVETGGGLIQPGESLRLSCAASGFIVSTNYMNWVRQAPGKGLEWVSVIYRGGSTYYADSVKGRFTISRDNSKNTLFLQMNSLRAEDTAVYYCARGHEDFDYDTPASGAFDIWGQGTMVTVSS VL: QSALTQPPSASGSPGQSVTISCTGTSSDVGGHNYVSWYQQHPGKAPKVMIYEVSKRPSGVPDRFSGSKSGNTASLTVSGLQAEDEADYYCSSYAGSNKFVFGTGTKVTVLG ?
Result: 0.00377
